assay: in vivo; conditions: male, C57BL/6, mouse
reported property: bioavailability

Qu. // lookup bioavailability for O=c1c2c3nc(n2Cc2ccc(Cl)cc2)Oc2ccc(F)c(c2)OCCCCCCn3c(=O)n1CCCO
Ans. 7.5%

---

molecular target: nAChRα4β2 (Homo sapiens, UniProt P17787+P43681); construct: ICE Bioscience ICESTP SafetyOne44 Panel; experiment: SafetyOne44 panel ion channels: nAChRα4β2; settings: nAChRα4β2, antagonist mode; read-out: Antagonist Reference Compounds IC50
Sequence (P43681 29-627 limits assumed): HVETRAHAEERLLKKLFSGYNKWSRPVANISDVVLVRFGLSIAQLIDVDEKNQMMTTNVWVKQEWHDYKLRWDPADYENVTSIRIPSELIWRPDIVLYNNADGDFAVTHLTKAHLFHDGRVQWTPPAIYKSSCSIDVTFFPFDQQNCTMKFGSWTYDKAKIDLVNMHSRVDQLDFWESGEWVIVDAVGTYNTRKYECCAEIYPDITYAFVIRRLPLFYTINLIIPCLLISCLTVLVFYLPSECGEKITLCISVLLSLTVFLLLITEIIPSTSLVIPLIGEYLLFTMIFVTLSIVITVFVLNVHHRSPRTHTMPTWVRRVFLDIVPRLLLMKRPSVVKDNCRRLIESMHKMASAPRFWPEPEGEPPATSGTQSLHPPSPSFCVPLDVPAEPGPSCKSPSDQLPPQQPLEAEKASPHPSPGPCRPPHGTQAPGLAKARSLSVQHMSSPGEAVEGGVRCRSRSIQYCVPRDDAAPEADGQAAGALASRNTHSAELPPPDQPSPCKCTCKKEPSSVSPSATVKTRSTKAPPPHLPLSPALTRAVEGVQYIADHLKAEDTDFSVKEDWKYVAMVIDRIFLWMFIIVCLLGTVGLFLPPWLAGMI
Sequence (P17787 26-502): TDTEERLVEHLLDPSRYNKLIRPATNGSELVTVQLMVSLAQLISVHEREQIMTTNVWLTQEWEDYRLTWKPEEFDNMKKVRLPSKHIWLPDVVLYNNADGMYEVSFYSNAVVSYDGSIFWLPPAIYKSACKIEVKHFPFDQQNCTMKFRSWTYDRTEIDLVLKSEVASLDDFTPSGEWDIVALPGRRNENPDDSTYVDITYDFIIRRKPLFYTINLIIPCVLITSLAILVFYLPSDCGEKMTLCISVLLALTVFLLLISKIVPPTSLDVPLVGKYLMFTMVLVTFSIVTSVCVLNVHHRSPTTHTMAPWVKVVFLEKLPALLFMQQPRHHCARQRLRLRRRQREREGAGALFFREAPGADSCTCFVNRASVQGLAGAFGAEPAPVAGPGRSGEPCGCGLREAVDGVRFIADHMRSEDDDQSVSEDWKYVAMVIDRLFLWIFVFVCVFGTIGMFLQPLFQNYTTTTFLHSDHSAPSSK
reported property: pIC50
Worth noting: pIC50 values are minus log10 of concentrations stated in mol/L.

Qu. Notebook entry, nAChRα4β2 (Homo sapiens, UniProt P17787+P43681) assay: pIC50 of CCN(CC)CCOC(=O)C(c1ccccc1)c1ccccc1 [Adiphenine, reference compound] = ?
Ans. 6.26

Each recorded value in this set is attributed to paper PMC12827894.
